Data provenance: patent US20240376097A1

Target: recombinant human Bcl-2 D103Y protein (Homo sapiens (Human), UniProt P10415, D103Y)
Sequence (P10415 whole entry D103Y): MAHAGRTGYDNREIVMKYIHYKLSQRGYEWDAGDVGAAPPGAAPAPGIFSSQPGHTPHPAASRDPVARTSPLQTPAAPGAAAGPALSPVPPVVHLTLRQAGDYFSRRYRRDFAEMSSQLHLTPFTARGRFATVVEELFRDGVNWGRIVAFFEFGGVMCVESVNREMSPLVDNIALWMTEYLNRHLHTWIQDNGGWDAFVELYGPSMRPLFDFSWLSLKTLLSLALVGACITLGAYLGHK
Assay: Bcl-2-D103Y Biochemical Assay (TR-FRET)
Settings: TR-FRET, FITC labeled Bak peptide
Description: Biological Example: Bcl-2-D103Y Biochemical Assay […]. The TR-FRET signals (ex337 nm, em490 nm/520 nm) were read on BMG PHERAstar FSX instrument. The inhibition percentage of Bcl-2 D103Y interaction with its ligand in presence of increasing concentrations of compounds was calculated based on the ratio of fluorescence at 490 nm to that at 520 nm. The IC50 for each compound was derived from fitting the data to the four-parameter logistic equation by Dotmatics.
pIC50: −log10 of the molar value.

{"Molecule": "CC(C)c1ccccc1C1CN(Cc2cccc3c2OCCCO3)CCN1C1CC2(CCN(c3ccc(C(=O)NS(=O)(=O)c4ccc(NC[C@H]5CC[C@](C)(O)CC5)c([N+](=O)[O-])c4)c(Oc4cnc5[nH]ccc5c4)c3)CC2)C1 (some centres unmarked) [Example 107]", "pIC50": 9.51}
{"Molecule": "COc1ccc(CN2CCN(C3CC4(C3)CN(c3ccc(C(=O)NS(=O)(=O)c5ccc(NC[C@H]6CC[C@](C)(O)CC6)c([N+](=O)[O-])c5)c(Oc5cnc6[nH]cc(F)c6c5)c3)C4)[C@H](c3ccccc3C(C)C)C2)nc1 [Example 241]", "pIC50": 10.33}
{"Molecule": "COc1ccc(CN2CCN(C3CC4(CCN(c5ccc(C(=O)NS(=O)(=O)c6ccc(NCC7CCC(CO)O7)c([N+](=O)[O-])c6)c(Oc6cnc7[nH]ccc7c6)c5)CC4)C3)[C@H](c3ccccc3C(C)C)C2)cc1 (some centres unmarked) [Example 220]", "pIC50": 10.11}
{"Molecule": "COC1C2CC3CCC(CN4CCN(C5CC6(C5)CN(c5ccc(C(=O)NS(=O)(=O)c7ccc(NC[C@H]8CC[C@](C)(O)CC8)c([N+](=O)[O-])c7)c(Oc7cnc8[nH]cc(F)c8c7)c5)C6)[C@H](c5ccccc5C(C)C)C4)(C2)CC31 (some centres unmarked) [Example 355]", "pIC50": 8.74}
{"Molecule": "CC(C)c1ccccc1[C@@H]1CN(Cc2ccnc3c2OCC(C)(C)O3)CCN1C1CC2(C1)CN(c1ccc(C(=O)NS(=O)(=O)c3ccc(NC[C@H]4CC[C@](C)(O)CC4)c([N+](=O)[O-])c3)c(Oc3cnc4[nH]cc(F)c4c3)c1)C2 [Example 317]", "pIC50": 10.24}
{"Molecule": "CC(C)c1ccccc1C1CN(C2CCC2)CCN1C1CC2(CCN(c3ccc(C(=O)NS(=O)(=O)c4ccc(NC[C@H]5CC[C@](C)(O)CC5)c([N+](=O)[O-])c4)c(Oc4cnc5[nH]ccc5c4)c3)CC2)C1 (some centres unmarked) [Example 5]", "pIC50": 9.49}
{"Molecule": "COc1ccc(CN2CCN(C3CC4(CCN(c5ccc(C(=O)NS(=O)(=O)c6ccc(OCC7CCC(C)(O)CC7)c([N+](=O)[O-])c6)c(Oc6cnc7[nH]ccc7c6)c5)CC4)C3)[C@H](c3ccccc3C(C)C)C2)cc1 (some centres unmarked) [Example 236]", "pIC50": 9.66}
{"Molecule": "COc1cc(CN2CCN(C3CC4(C3)CN(c3ccc(C(=O)NS(=O)(=O)c5ccc(NC[C@H]6CC[C@](C)(O)CC6)c([N+](=O)[O-])c5)c(Oc5cnc6[nH]cc(F)c6c5)c3)C4)[C@H](c3ccccc3C(C)C)C2)ccc1NC(C)C [Example 360]", "pIC50": 9.51}
